biological target: 5-HT4 receptor (Cavia porcellus, UniProt O70528); construct: the mixture was suspended to give receptor membrane preparations; from tissue; host or cells: guinea pig (Slc-Hartley) brain striatum membranes; assay: Serotonin 4 (5-HT4) receptor binding assay; design: species or system guinea pig; settings: inhibition of specific binding of 0.1 nM [3H]-GR113808; guinea pig striatum membrane preparations; 37° C., 30 minutes; read-out: IC50
Sequence (O70528 whole entry): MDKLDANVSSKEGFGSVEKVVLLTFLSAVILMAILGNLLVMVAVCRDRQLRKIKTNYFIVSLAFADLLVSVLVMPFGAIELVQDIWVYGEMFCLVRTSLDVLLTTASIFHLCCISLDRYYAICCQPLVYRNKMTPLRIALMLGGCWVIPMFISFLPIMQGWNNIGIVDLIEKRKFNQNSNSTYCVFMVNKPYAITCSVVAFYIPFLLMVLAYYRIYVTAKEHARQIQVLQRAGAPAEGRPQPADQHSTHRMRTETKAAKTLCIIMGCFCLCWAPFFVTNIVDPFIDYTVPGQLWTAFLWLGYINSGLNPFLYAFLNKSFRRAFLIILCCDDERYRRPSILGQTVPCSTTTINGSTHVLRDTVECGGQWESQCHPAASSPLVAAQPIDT
pIC50: −log10 of the molar value.
OBSERVABLE: pIC50

Guide cases for pIC50, answers given:
q: # query: pIC50 | item COc1cc(N)c(Cl)cc1C(=O)NC[C@H]1CN(CC2CCN(C(=O)c3ccccc3OC(C)=O)CC2)CCO1 | system: 5-HT4 receptor (Cavia porcellus, UniProt O70528)
a: 8.16

q: # query: pIC50 | item COc1cc(N)c(Cl)cc1C(=O)NC[C@H]1CN(CC2CCN(C(=O)C(C)=O)CC2)CCO1 | system: 5-HT4 receptor (Cavia porcellus, UniProt O70528)
a: 8.21

A: COc1cc(N)c(Cl)cc1C(=O)NC[C@H]1CN(CC2CCN(C(=O)NCc3ccccc3)CC2)CCO1
B: COc1cc(N)c(Cl)cc1C(=O)NC[C@H]1CN(CC2CCN(C(=O)c3ccc(O)cc3)CC2)CCO1
C: COc1cc(N)c(Cl)cc1C(=O)NC[C@H]1CN(CC2CCN(C(=O)c3cocn3)CC2)CCO1
q: Highest pIC50 first, then in falling order down to the smallest. Could you list the labels in the order requested?
a: A, B, C
(A: 8.55, B: 8.34, C: 7.88)

====

target: 5-HT4 receptor (Cavia porcellus); construct: the mixture was suspended to give receptor membrane preparations; from tissue; host or cells: guinea pig (Slc-Hartley) brain striatum membranes; assay: Serotonin 4 (5-HT4) receptor binding assay; parameters: species or system guinea pig; conditions: inhibition of specific binding of 0.1 nM [3H]-GR113808; guinea pig striatum membrane preparations; 37° C., 30 minutes; read-out: IC50
Counter-ions that a name gives are not always drawn.
OBSERVABLE: IC50 (nM)

q: # query: IC50 | item COc1cc(N)c(Cl)cc1C(=O)NC[C@H]1CN(CC2CCN(C(=O)Nc3cccc(C(F)(F)F)c3)CC2)CCO1 | system: 5-HT4 receptor (Cavia porcellus)
a: 5.91

q: # query: IC50 | item COc1cc(N)c(Cl)cc1C(=O)NC[C@H]1CN(CC2CCN(C(=O)c3cccc(O)c3)CC2)CCO1 | system: 5-HT4 receptor (Cavia porcellus)
a: 4.45

q: # query: IC50 | item CCOc1cc(N)c(Cl)cc1C(=O)NC[C@H]1CN(CC2CCN(C(=O)NC)CC2)CCO1 | system: 5-HT4 receptor (Cavia porcellus)
a: 8.04

q: # query: IC50 | item COc1cc(N)c(Cl)cc1C(=O)NC[C@H]1CN(CC2CCN(C(=O)CO)CC2)CCO1 [Example 198, hydrochloride] | system: 5-HT4 receptor (Cavia porcellus)
a: 25.9

q: # query: IC50 | item COc1cc(N)c(Cl)cc1C(=O)NC[C@H]1CN(CC2CCN(C(=O)c3cccc(F)c3)CC2)CCO1 | system: 5-HT4 receptor (Cavia porcellus)
a: 2.23

A: COc1cc(N)c(Cl)cc1C(=O)NC[C@H]1CN(CC2CCN(C(=O)c3ccc(C(C)(C)C)cc3)CC2)CCO1
B: CCOc1cc(N)c(Cl)cc1C(=O)NCC1CN(CC2CCN(C(=O)N3CCCC3)CC2)CCO1 (stereo not drawn)
C: COc1cc(N)c(Cl)cc1C(=O)NC[C@H]1CN(CC2CCN(C(=O)C3CCOC3)CC2)CCO1 (stereo partly drawn)
D: CCOc1cc(N)c(Cl)cc1C(=O)NC[C@H]1CN(CC2CCN(C(=O)c3ccc(Cl)cc3)CC2)CCO1
E: COc1cc(N)c(Cl)cc1C(=O)NC[C@H]1CN(CC2CCN(S(C)(=O)=O)CC2)CCO1
q: Highest IC50 first, then in falling order down to the smallest. Could you list the labels in the order requested?
a: C, E, B, A, D
(C: 21.2 nM, E: 11.9 nM, B: 6.98 nM, A: 2.11 nM, D: 0.68 nM)

A: C=CCCC=CC(=O)N1CCC(CN2CCOC(CNC(=O)c3cc(Cl)c(N)cc3OCC)C2)CC1 (racemic)
B: CS(=O)(=O)N1CCC(CN2CCOC(CNC(=O)c3cc(Cl)c(N)c4c3OCC4)C2)CC1 (stereo not drawn)
q: Pick the one with the larger IC50: A vs B Give the chosen item's label as your response.
a: A
(A: 7.5 nM, B: 2.84 nM)

P: COC(=O)N1CCC(CN2CCOC(CNC(=O)c3cc(Cl)c(N)c4c3OCC4)C2)CC1 (stereo not drawn)
Q: COc1cc(N)c(Cl)cc1C(=O)NC[C@H]1CN(CC2CCN(C(=O)NCCc3ccccc3)CC2)CCO1
q: Pick the one with the larger IC50: P vs Q Give the chosen item's label as your response.
a: Q
(Q: 8.6 nM, P: 2.8 nM)

====

biological target: 5-HT4 receptor (Cavia porcellus); construct: the mixture was suspended to give receptor membrane preparations; from tissue; host or cells: guinea pig (Slc-Hartley) brain striatum membranes; experiment: Serotonin 4 (5-HT4) receptor binding assay; set-up: species or system guinea pig; conditions: inhibition of specific binding of 0.1 nM [3H]-GR113808; guinea pig striatum membrane preparations; 37° C., 30 minutes; read-out: IC50
OBSERVABLE: IC50 (nM)

Guide cases for IC50, answers given:
q: Would you kindly share the measured IC50 for COCCC(=O)N1CCC(CN2CCO[C@@H](CNC(=O)c3cc(Cl)c(N)cc3OC)C2)CC1 ?
a: 14.5

q: Would you kindly share the measured IC50 for COc1cc(N)c(Cl)cc1C(=O)NC[C@H]1CN(CC2CCN(C(=O)Nc3cccc(C(C)=O)c3)CC2)CCO1 ?
a: 2.9

q: Would you kindly share the measured IC50 for COc1cc(N)c(Cl)cc1C(=O)NC[C@H]1CN(CC2CCN(C(=O)c3cccc(C)c3)CC2)CCO1 ?
a: 2.05

q: Would you kindly share the measured IC50 for CCOc1cc(N)c(Cl)cc1C(=O)NC[C@H]1CN(CC2CCN(C(=O)N3CCC3)CC2)CCO1 ?
a: 4.79

q: Would you kindly share the measured IC50 for COc1cc(N)c(Cl)cc1C(=O)NC[C@H]1CN(CC2CCN(C(=O)c3ccccc3C)CC2)CCO1 ?
a: 1.7

A: COc1cccc(C(=O)N2CCC(CN3CCO[C@@H](CNC(=O)c4cc(Cl)c(N)cc4OC)C3)CC2)c1
B: C=CCCCCC(=O)N1CCC(CN2CCOC(CNC(=O)c3cc(Cl)c(N)cc3OCC)C2)CC1 (racemic)
q: Please indicate which has the smaller reported IC50: A , or B . Give the chosen item's label as your response.
a: A

====

Structures can show the parent of a compound that is named as a salt.
Each entry below carries its recorded melting point.

Guide cases for melting point, answers given:
q: Would you kindly share the measured melting point for CCOc1cc(N)c(Cl)cc1C(=O)NCC1CN(CC2CCN(C#N)CC2)CCO1 (stereo not shown) ?
a: 197 °C (dec.)

q: Would you kindly share the measured melting point for COc1cc(N)c(Cl)cc1C(=O)NC[C@H]1CN(CC2CCN(C(=O)CO)CC2)CCO1 (as salt: hydrobromid) (hydrate or solvate) [Example 220] ?
a: 215 to 216 °C (dec.)

q: Would you kindly share the measured melting point for COc1cc(N)c(Cl)cc1C(=O)NC[C@H]1CN(CC2CCN(C(=O)CO)CC2)CCO1 (as salt: hydrochloride) [Example 198] ?
a: 164 to 167 °C (dec.)

Now turn to the next molecule.
q: Would you kindly share the measured melting point for COc1cc(N)c(Cl)cc1C(=O)NCC1CN(CC2CCN(C(=O)N(C)C)CC2)CCO1 (stereo not shown) ?
a: 179 to 180 °C

====

Target: 5-HT4 receptor (Cavia porcellus, UniProt O70528)
Construct: the mixture was suspended to give receptor membrane preparations; from tissue; host or cells: guinea pig (Slc-Hartley) brain striatum membranes
Test: Serotonin 4 (5-HT4) receptor binding assay
Set-up: species or system guinea pig
Settings: inhibition of specific binding of 0.1 nM [3H]-GR113808; guinea pig striatum membrane preparations; 37° C., 30 minutes; read-out: IC50
Procedure: 5-HT4 receptor binding assay and preparations of receptor membrane preparations were carried out according to a method of Grossman et al. [see British J. Pharmacol., (1993) 109, 618]. Slc-Hartley guinea pigs (body weight 300 to 400 g) were decapitated to remove brain rapidly, and striatum was isolated. To the obtained tissues were added fifteenfold of Hepes buffer (50 mM, pH7.4, 4° C.), and the mixture was homogenized by Teflon® homogenizer and centrifuged at 48,000×g (4° C.) for 15 minutes. […]
pIC50: −log10 of the molar value.
OBSERVABLE: pIC50

Guide cases for pIC50, answers given:
q: # query: pIC50 | item Nc1c(Cl)cc(C(=O)NC[C@H]2CN(CC3CCN(C(=O)CO)CC3)CCO2)c2c1CCO2 | system: 5-HT4 receptor (Cavia porcellus, UniProt O70528)
a: 7.92

q: # query: pIC50 | item CN(C)C(=O)N1CCC(CN2CCOC(CNC(=O)c3cc(Cl)c(N)c4c3OCC4)C2)CC1 (stereo not shown) | system: 5-HT4 receptor (Cavia porcellus, UniProt O70528)
a: 8.22

I: COc1cc(N)c(Cl)cc1C(=O)NC[C@H]1CN(CC2CCN(C(=O)c3cccc(Br)c3)CC2)CCO1
II: COc1cc(N)c(Cl)cc1C(=O)NC[C@H]1CN(CC2CCN(C(C)=O)CC2)CCO1
III: Nc1c(Cl)cc(C(=O)NCC2CN(CC3CCN(C(=O)N4CCCC4)CC3)CCO2)c2c1CCO2 (stereo not shown)
IV: COc1cc(N)c(Cl)cc1C(=O)NC[C@H]1CN(CC2CCN(C(=O)c3ccc(C)cc3)CC2)CCO1
V: COc1cc(N)c(Cl)cc1C(=O)NC[C@H]1CN(CC2CCN(C(=O)c3ccc(C#N)cc3)CC2)CCO1
q: Highest pIC50 first, then in falling order down to the smallest. Could you list the labels in the order requested?
a: I, V, III, IV, II
(I: 10.40, V: 9.19, III: 8.82, IV: 8.58, II: 7.34)

Hello, the source for this data is patent US7906510B2, in case you need it.
